# System: PIK3CA (human), P42336 [H1047Y]
# Sequence (P42336 whole entry H1047Y, looked up): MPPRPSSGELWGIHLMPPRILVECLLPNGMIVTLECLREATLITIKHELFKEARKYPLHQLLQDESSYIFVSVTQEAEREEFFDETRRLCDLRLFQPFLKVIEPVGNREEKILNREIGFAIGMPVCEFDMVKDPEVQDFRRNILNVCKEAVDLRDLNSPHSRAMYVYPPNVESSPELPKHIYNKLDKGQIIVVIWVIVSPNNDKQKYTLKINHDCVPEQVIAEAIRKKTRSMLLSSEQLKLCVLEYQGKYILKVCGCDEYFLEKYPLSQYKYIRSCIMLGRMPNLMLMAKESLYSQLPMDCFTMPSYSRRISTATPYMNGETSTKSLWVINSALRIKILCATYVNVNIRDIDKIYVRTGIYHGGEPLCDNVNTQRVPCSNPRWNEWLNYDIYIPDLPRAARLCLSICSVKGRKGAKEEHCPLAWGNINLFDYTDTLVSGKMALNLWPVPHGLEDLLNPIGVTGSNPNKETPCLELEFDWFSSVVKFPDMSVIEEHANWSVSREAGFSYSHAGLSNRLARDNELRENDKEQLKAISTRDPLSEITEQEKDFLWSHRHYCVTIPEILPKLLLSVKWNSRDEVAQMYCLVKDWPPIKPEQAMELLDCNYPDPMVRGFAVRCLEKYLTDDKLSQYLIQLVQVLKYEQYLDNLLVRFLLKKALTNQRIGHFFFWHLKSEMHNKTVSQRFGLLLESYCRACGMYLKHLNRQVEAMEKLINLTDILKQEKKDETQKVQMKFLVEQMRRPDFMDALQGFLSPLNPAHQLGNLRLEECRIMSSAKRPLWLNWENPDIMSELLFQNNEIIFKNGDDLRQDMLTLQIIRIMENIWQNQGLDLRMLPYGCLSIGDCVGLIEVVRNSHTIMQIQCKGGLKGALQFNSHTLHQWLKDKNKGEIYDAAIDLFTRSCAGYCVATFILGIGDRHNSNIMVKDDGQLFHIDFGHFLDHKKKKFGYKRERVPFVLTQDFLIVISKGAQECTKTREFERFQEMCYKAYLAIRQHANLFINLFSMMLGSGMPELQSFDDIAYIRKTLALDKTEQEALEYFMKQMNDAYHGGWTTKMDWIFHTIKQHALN
# PROTOCOL DETAILS: KINOMEscan competition binding
# CONDITION NOTES: compound 10.0 µM
REPORTED PROPERTY: kinase still bound, per cent of control (%)

The examples below pair each entry with its known result.
Cn1cc(C2=C(c3ccc(Cl)cc3Cl)C(=O)NC2=O)c2ccccc21
100
O=C1Nc2cc(Br)ccc2/C1=C1/Nc2ccccc2/C1=N\O
100

1. Cc1cnc(-c2cnc(NCCNc3ccc(C#N)cn3)nc2-c2ccc(Cl)cc2Cl)[nH]1
2. COc1ccc(CNC(=O)Nc2ncc([N+](=O)[O-])s2)cc1
query: For the pair 1 and 2 , which entry has the numerically smaller recorded kinase still bound, per cent of control? Bench note: the answer is the label of the chosen record.
result: 1

###

# ASSAYED SYSTEM: MET (human) (UniProt P08581)
# Sequence (P08581 whole entry, looked up): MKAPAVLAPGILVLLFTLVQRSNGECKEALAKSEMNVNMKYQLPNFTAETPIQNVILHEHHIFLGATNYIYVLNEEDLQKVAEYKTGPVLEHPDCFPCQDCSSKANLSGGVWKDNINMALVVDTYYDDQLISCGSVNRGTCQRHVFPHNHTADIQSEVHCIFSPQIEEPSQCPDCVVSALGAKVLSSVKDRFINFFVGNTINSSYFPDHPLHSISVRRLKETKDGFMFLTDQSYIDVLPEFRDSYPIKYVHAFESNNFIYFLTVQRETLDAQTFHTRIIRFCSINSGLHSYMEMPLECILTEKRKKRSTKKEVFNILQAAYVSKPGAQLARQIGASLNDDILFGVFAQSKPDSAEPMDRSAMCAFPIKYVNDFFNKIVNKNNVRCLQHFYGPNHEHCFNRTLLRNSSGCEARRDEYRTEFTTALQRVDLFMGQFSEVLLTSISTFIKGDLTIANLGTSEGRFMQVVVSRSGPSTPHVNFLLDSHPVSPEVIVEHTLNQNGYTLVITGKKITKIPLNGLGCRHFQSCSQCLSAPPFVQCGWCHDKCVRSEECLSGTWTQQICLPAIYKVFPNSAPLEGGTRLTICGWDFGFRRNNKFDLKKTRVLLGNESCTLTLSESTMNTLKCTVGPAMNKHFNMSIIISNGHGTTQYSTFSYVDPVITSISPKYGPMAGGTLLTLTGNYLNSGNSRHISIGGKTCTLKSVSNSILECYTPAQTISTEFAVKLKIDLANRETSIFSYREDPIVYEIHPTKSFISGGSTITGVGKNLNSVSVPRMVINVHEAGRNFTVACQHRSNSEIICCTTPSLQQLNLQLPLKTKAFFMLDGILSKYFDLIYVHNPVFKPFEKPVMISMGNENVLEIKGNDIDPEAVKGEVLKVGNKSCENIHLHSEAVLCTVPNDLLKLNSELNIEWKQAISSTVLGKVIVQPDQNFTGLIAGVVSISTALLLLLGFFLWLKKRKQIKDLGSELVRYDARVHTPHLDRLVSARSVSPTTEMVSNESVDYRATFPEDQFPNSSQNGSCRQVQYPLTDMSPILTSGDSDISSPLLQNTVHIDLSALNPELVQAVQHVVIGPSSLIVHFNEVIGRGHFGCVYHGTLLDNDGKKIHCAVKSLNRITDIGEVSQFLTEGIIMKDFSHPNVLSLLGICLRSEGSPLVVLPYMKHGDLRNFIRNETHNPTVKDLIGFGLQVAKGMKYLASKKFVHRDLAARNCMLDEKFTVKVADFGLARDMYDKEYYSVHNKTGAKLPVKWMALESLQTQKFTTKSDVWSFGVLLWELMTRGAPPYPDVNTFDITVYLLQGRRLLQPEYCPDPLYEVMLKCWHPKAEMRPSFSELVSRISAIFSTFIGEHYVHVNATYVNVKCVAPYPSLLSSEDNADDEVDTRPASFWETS
# PROTOCOL DETAILS: KINOMEscan competition binding
# CONDITION NOTES: compound 10.0 µM
REPORTED PROPERTY: kinase still bound, per cent of control (%)

Cn1cc(C2=C(c3ccc(Cl)cc3Cl)C(=O)NC2=O)c2ccccc21
79
Cc1cnc(-c2cnc(NCCNc3ccc(C#N)cn3)nc2-c2ccc(Cl)cc2Cl)[nH]1
96
COc1ccc(CNC(=O)Nc2ncc([N+](=O)[O-])s2)cc1
92
O=C1Nc2cc(Br)ccc2/C1=C1/Nc2ccccc2/C1=N\O
86

###

# ASSAYED SYSTEM: CDK2 (human) (UniProt P24941)
# PROTOCOL DETAILS: KINOMEscan competition binding
# CONDITION NOTES: compound 10.0 µM
REPORTED PROPERTY: kinase still bound, per cent of control (%)

COc1ccc(CNC(=O)Nc2ncc([N+](=O)[O-])s2)cc1
74

I. Cc1cnc(-c2cnc(NCCNc3ccc(C#N)cn3)nc2-c2ccc(Cl)cc2Cl)[nH]1
II. O=C1Nc2cc(Br)ccc2/C1=C1/Nc2ccccc2/C1=N\O
III. Cn1cc(C2=C(c3ccc(Cl)cc3Cl)C(=O)NC2=O)c2ccccc21
query: Please list the entries, largest kinase still bound, per cent of control first. Please express your ranking as an ordered list of the labels.
result: I, II, III
(I: 54%, II: 14%, III: 7.4%)

###

# ASSAYED SYSTEM: CDC42BPG (human) (UniProt Q6DT37)
# Sequence (Q6DT37 whole entry, looked up): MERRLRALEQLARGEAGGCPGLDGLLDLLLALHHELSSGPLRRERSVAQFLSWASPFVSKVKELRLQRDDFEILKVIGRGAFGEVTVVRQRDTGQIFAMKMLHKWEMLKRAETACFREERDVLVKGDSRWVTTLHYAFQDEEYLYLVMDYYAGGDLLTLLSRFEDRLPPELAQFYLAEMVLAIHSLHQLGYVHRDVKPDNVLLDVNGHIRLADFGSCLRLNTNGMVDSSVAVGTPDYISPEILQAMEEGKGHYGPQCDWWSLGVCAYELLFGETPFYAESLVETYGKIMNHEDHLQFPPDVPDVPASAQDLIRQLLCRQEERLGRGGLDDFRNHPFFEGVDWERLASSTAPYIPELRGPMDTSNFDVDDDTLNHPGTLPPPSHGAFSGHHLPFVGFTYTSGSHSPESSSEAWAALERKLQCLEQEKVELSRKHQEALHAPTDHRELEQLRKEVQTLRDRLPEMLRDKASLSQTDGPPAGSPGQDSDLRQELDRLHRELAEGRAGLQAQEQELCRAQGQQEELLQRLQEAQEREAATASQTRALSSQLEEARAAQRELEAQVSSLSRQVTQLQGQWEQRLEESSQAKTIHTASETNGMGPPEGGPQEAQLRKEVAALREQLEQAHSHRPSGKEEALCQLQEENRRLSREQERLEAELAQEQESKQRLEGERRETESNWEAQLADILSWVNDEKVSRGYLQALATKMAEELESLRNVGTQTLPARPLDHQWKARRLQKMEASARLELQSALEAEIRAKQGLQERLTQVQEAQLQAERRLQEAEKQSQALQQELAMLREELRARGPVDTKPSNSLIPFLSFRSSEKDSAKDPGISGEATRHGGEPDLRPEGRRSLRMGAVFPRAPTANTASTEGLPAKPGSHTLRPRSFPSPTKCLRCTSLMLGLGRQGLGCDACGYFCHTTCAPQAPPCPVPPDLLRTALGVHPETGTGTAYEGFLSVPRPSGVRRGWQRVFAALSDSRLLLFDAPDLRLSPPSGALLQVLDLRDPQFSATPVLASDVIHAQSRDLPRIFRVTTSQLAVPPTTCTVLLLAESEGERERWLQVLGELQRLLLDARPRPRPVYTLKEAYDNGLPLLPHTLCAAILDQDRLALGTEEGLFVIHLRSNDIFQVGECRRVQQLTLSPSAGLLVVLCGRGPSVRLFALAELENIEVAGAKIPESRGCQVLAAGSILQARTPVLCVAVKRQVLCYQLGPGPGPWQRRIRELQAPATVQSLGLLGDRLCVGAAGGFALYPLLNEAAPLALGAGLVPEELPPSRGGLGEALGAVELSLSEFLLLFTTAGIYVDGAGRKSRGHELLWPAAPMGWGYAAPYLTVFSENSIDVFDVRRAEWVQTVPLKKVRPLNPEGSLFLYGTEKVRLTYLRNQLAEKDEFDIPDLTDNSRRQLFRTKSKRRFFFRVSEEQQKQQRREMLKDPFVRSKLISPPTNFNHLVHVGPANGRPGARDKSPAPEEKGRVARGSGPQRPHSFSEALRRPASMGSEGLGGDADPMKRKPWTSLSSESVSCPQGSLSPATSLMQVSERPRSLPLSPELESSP
# PROTOCOL DETAILS: KINOMEscan competition binding
# CONDITION NOTES: compound 10.0 µM
REPORTED PROPERTY: kinase still bound, per cent of control (%)

COc1ccc(CNC(=O)Nc2ncc([N+](=O)[O-])s2)cc1
100
O=C1Nc2cc(Br)ccc2/C1=C1/Nc2ccccc2/C1=N\O
80
Cn1cc(C2=C(c3ccc(Cl)cc3Cl)C(=O)NC2=O)c2ccccc21
100
Cc1cnc(-c2cnc(NCCNc3ccc(C#N)cn3)nc2-c2ccc(Cl)cc2Cl)[nH]1
100

###

# ASSAYED SYSTEM: ACVRL1 (human)
# PROTOCOL DETAILS: KINOMEscan competition binding
# CONDITION NOTES: compound 10.0 µM
REPORTED PROPERTY: kinase still bound, per cent of control (%)

Cc1cnc(-c2cnc(NCCNc3ccc(C#N)cn3)nc2-c2ccc(Cl)cc2Cl)[nH]1
100
Cn1cc(C2=C(c3ccc(Cl)cc3Cl)C(=O)NC2=O)c2ccccc21
100
COc1ccc(CNC(=O)Nc2ncc([N+](=O)[O-])s2)cc1
97
O=C1Nc2cc(Br)ccc2/C1=C1/Nc2ccccc2/C1=N\O
100
